Listed below: stability in PBS, L-cysteine, and L-histidine values for each entry.
- measurement_protocol: In vitro radiocomplex stability in PBS buffer with no challenger, L-cysteine or L-histidine
- Format: physicochemical
- measurement_parameters: through/after 48 h, 37 °C
value_kind: stability in PBS, L-cysteine, and L-histidine

INSERT INTO assay_data (compound, experimental_value) VALUES
  ('CCOC(=O)CN1CCN(CC(=O)NCc2ccccc2)CCN(CC(=O)OCC)CC1.O=[C]=[186Re+](=[C]=O)=[C]=O [[^186Re]Re-6]', '> 76%'),
  ('COC(=O)CN1CCN(CC(=O)NCc2ccccc2)CCN(CC(=O)OC)CC1.O=[C]=[186Re+](=[C]=O)=[C]=O [[^186Re]Re-5]', '> 76%'),
  ('CCOC(=O)CN1CCN(CC(=O)O)CCN(CC(=O)NCc2ccccc2)CC1.O=[C]=[186Re+](=[C]=O)=[C]=O [[^186Re]Re-8]', '> 94%'),
  ('COC(=O)CN1CCN(CC(=O)O)CCN(CC(=O)NCc2ccccc2)CC1.O=[C]=[186Re+](=[C]=O)=[C]=O [[^186Re]Re-7]', '> 94%');

* * *

- measurement_protocol: In vitro radiocomplex stability in PBS buffer with no challenger, L-cysteine or L-histidine
- Format: physicochemical
- measurement_parameters: through 4 h, 37 °C
Listed below: stability in PBS, L-cysteine, and L-histidine values for each entry.
value_kind: stability in PBS, L-cysteine, and L-histidine

INSERT INTO results (compound, experimental_value) VALUES
  ('CCOC(=O)CN1CCN(CC(=O)NCc2ccccc2)CCN(CC(=O)OCC)CC1.O=[C]=[186Re+](=[C]=O)=[C]=O [[^186Re]Re-6]', '> 95%'),
  ('COC(=O)CN1CCN(CC(=O)NCc2ccccc2)CCN(CC(=O)OC)CC1.O=[C]=[186Re+](=[C]=O)=[C]=O [[^186Re]Re-5]', '> 95%'),
  ('COC(=O)CN1CCN(CC(=O)NCc2ccccc2)CCN(CC(=O)OC)CC1.O=[C]=[99Tc+](=[C]=O)=[C]=O [[^99mTc]Tc-5]', '> 90%'),
  ('CCOC(=O)CN1CCN(CC(=O)NCc2ccccc2)CCN(CC(=O)OCC)CC1.O=[C]=[99Tc+](=[C]=O)=[C]=O [[^99mTc]Tc-6]', '> 90%');

* * *

Listed below: stability in rat serum values for each entry.
- measurement_protocol: Radiocomplex stability in rat serum
- Type: in vitro ADME
- measurement_parameters: 48 h, 37 °C
value_kind: stability in rat serum (%)

INSERT INTO assay_data (compound, value_kind, readout_units, qualifier_operator, experimental_value) VALUES
  ('CCOC(=O)CN1CCN(CC(=O)O)CCN(CC(=O)NCc2ccccc2)CC1.O=[C]=[186Re+](=[C]=O)=[C]=O [[^186Re]Re-8]', 'stability in rat serum', '%', '=', 42),
  ('CCOC(=O)CN1CCN(CC(=O)NCc2ccccc2)CCN(CC(=O)OCC)CC1.O=[C]=[186Re+](=[C]=O)=[C]=O [[^186Re]Re-6]', 'stability in rat serum', '%', '≤', 2),
  ('COC(=O)CN1CCN(CC(=O)O)CCN(CC(=O)NCc2ccccc2)CC1.O=[C]=[186Re+](=[C]=O)=[C]=O [[^186Re]Re-7]', 'stability in rat serum', '%', '=', 38),
  ('COC(=O)CN1CCN(CC(=O)NCc2ccccc2)CCN(CC(=O)OC)CC1.O=[C]=[186Re+](=[C]=O)=[C]=O [[^186Re]Re-5]', 'stability in rat serum', '%', '=', 4);

* * *

- measurement_protocol: In vitro radiocomplex stability in PBS buffer with no challenger, L-cysteine or L-histidine
- Type: physicochemical
- measurement_parameters: through 24 h, 37 °C
- Method: Radiocomplex stability testing was carried out in PBS buffer (350–400 μL) with either no challenger or L-cysteine (50 μL, 10 mM) or L-histidine (50 μL, 10 mM) as the challenger. […] Aliquots of each solution were taken at 1, 4, and 24 h, and the stability of the complex was determined by radio-HPLC (Methods 1 and 3) or radio-TLC (Developer 1). […] The formation of colloidal [^99mTc]TcO2 or [^186Re]ReO2 was monitored at each time point by radio-TLC (Developers 1 and 2).
value_kind: stability in PBS, L-cysteine, and L-histidine (%)

INSERT INTO measurements (compound, qualifier_operator, experimental_value) VALUES
  ('COC(=O)CN1CCN(CC(=O)NCc2ccccc2)CCN(CC(=O)OC)CC1.O=[C]=[99Tc+](=[C]=O)=[C]=O [[^99mTc]Tc-5]', '>', 79),
  ('CCOC(=O)CN1CCN(CC(=O)O)CCN(CC(=O)NCc2ccccc2)CC1.O=[C]=[99Tc+](=[C]=O)=[C]=O [[^99mTc]Tc-8]', '=', 100),
  ('COC(=O)CN1CCN(CC(=O)O)CCN(CC(=O)NCc2ccccc2)CC1.O=[C]=[99Tc+](=[C]=O)=[C]=O [[^99mTc]Tc-7]', '=', 100),
  ('CCOC(=O)CN1CCN(CC(=O)NCc2ccccc2)CCN(CC(=O)OCC)CC1.O=[C]=[99Tc+](=[C]=O)=[C]=O [[^99mTc]Tc-6]', '>', 79);

* * *

- measurement_protocol: Radiocomplex stability in rat serum
- Type: in vitro ADME
- measurement_parameters: 24 h, 37 °C
Listed below: stability in rat serum values for each entry.
value_kind: stability in rat serum

INSERT INTO assay_data (compound, experimental_value) VALUES
  ('COC(=O)CN1CCN(CC(=O)NCc2ccccc2)CCN(CC(=O)OC)CC1.O=[C]=[99Tc+](=[C]=O)=[C]=O [[^99mTc]Tc-5]', '32 ± 10%'),
  ('CCOC(=O)CN1CCN(CC(=O)NCc2ccccc2)CCN(CC(=O)OCC)CC1.O=[C]=[99Tc+](=[C]=O)=[C]=O [[^99mTc]Tc-6]', '≤ 2%'),
  ('CCOC(=O)CN1CCN(CC(=O)O)CCN(CC(=O)NCc2ccccc2)CC1.O=[C]=[99Tc+](=[C]=O)=[C]=O [[^99mTc]Tc-8]', '> 60%'),
  ('COC(=O)CN1CCN(CC(=O)O)CCN(CC(=O)NCc2ccccc2)CC1.O=[C]=[99Tc+](=[C]=O)=[C]=O [[^99mTc]Tc-7]', '> 60%');
